molecular target: T1, human PILRA G78 on HEK293F cells (human, UniProt Q9UKJ1 20-303); assay: hA Kd of Table 9; method not stated (Example 8: HEK293F overexpressing cells, FACS)
T1 construct: also called hA; G78 OE
T1 sequence (Q9UKJ1 20-303 R78G): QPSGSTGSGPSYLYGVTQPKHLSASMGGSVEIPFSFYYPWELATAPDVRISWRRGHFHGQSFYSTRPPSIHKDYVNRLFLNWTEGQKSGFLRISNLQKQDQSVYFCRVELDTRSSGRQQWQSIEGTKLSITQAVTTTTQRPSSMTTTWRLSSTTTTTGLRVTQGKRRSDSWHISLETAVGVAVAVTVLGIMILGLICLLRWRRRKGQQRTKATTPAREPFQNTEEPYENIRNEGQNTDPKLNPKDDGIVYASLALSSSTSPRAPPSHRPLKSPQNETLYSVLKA
TEST READOUT: pKd
// field semantics: pKd = negative decimal log of concentration (mol/L)

Would you kindly share the measured pKd for X7 (antibody, human IgG4, V domains shown, conditioned media in the HEK293F assays) VH: QVQLVQSGAEVKKPGSSVKVSCKASGYNFLNYDVNWVRQAPGQGLEWMGGIIPIFGTANYAQKFQGRVTITADESTSTAYMELSSLRSEDTAVYYCATGVGAGWFDPWGQGTLVTVSS VL: DIVMTQSPDSLAVSLGERATINCKSSQSVFFDENNKNYLAWYQQKPGQPPKLLIYWASTRESGVPDRFSGSGSGTDFTLTISSLQAEDVAVYYCQQYFEEPYTFGQGTRLEIK ? 8.92

The values you see were collected from patent US20260070976A1.
